// provenance: paper PMC4119572

# EXPERIMENTAL_TARGET: OCT2 (Homo sapiens, UniProt O15244)
# Sequence (O15244 whole entry): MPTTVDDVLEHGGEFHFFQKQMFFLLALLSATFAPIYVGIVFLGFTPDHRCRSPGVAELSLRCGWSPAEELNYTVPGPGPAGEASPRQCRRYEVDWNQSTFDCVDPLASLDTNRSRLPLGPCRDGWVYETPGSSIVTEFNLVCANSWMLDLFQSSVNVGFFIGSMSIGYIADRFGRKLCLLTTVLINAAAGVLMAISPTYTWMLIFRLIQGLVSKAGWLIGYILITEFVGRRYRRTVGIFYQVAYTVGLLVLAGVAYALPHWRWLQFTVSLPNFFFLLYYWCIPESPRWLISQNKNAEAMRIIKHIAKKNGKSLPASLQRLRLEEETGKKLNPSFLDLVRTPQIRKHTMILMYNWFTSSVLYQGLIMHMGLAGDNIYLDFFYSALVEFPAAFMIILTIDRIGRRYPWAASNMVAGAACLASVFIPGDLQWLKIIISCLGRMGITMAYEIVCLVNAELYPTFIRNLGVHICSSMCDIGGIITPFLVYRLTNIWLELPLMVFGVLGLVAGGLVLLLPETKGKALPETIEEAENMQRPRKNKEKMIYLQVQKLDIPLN
# METHOD_SUMMARY: […]TEA uptake inhibition in OCT2-transfected HEK293 cells, Dixon plot
READOUT_TYPE: Ki (µM)

>>> recorded_value("Cc1ccc(C(=O)Cn2c3c(sc2=N)CCCC3)cc1 [pifithrin-α]")
3.04
